System: HS 578T breast
measurementDescription: NCI-60 one-dose screen, 48 h
studyConditions: 10 µM unless noted
This is part of a sample that, as a whole, favours compounds with a hit. Of some 83,000 tested, about 20% had one in any assay. Calls of active or inactive are those of the source. How the source made its calls: active means growth percent below 10; inactive means the rest.
Answer with one of the outcomes given here: 1 (active), -1 (inactive)

Tell me the assay call for Cc1ccc(-c2cc(C(=O)N=Nc3c(O)[nH]c4ccc(F)cc34)c3ccccc3n2)cc1 please. -1

Record request — test call for N#CC1=C(c2cccs2)Nc2c(c(-c3ccccc3)nn2-c2ccccc2)C12C(=O)Nc1ccc(Br)cc12 (centres undefined) 1

Recorded test outcome, item Nc1cc(-c2c[nH]c3ccc(F)cc23)nc2cc(-c3c[nH]c4ccccc34)nn12 -1

What call does the record list for O=c1ccc(Cn2c(C(F)(F)F)cc3c(Cl)ncnc32)c[nH]1 ? 1

What did this assay record as the result for N#CC1=C(c2ccco2)Nc2c(c(-c3ccccc3)nn2-c2ccccc2)C12C(=O)Nc1ccc(Br)cc12 (centres undefined) ? 1

// param item: CC(C)CN1C(=O)/C(=C\C(=O)c2cc3ccccc3oc2=O)c2ccccc21 ; yields the recorded call -1

Hello, I am checking results. What call was entered for COc1ccc(C(=O)c2c(N)c(C#N)cn2-c2ccc([N+](=O)[O-])cc2)cc1 ? -1

Given COc1ccc(-c2cc(C(=O)N=Nc3c(O)[nH]c4ccc(Cl)cc34)c3ccccc3n2)cc1 , state the outcome it received in this test. -1

Which outcome was entered for the compound CN1C(=O)C(O)(CC(=O)c2cc3ccccc3oc2=O)c2ccccc21 (centres undefined) in this test? -1

====

I'd be grateful if you could share measured growth for these entries.
System: SK-MEL-2 melanoma
measurementDescription: NCI-60 one-dose screen, 48 h (100 = growth as untreated, 0 = no growth, -100 = all killed)
studyConditions: 10 µM unless noted
Compounds without any hit were thinned out: in the full panel of roughly 83,000, 20% have a hit.
The response must be a number in % with no trailing unit.

Give me measured growth, please, for this compound: Cc1ccc(/C=C/C(=O)c2ccc(S(=O)(=O)NCCNc3nc(N(C)C)nc(N4CCOCC4)n3)cc2)cc1 94.1

In one line, give reported growth of the entry O=C(Nc1ccc(-c2ccc3c(c2)NC(=O)/C3=C\c2ccc[nH]2)cc1)Nc1cccc(Cl)c1 . -52.8

State its growth for this compound: COc1ccc(-c2nnc3c(/C=C/c4ccc(Br)cc4)nc4ccccc4n23)cc1 92.9

Respond only with growth recorded for Cc1cccc(C)c1Nc1nnc(-c2c[nH]c3ccccc23)o1 99.5

Identify measured growth corresponding to C#CCN(C)CCCOc1ccc(N(CC)C(=O)c2cc(C(C)C)c(O)cc2O)cc1Cl -57.9

====

System: COLO 205 colon
measurementDescription: NCI-60 one-dose screen, 48 h (100 = growth as untreated, 0 = no growth, -100 = all killed)
studyConditions: 10 µM unless noted
About 83,000 compounds went through this panel and 20% of them were active in at least one assay; those are over-represented in the sample as a whole.
Threshold-based label: growth under 90% gives Met, growth not under 90% gives Not met.

Would you kindly verify if growth of COc1cc(C=O)ccc1OC(=O)c1cc(-c2ccc(C)cc2)n(-c2ccc(S(C)(=O)=O)cc2)n1 is strictly less than 90%? Not met

Confirm or reject: growth of N#CC1=C(c2cccs2)Nc2c(c(-c3ccccc3)nn2-c2ccccc2)C12C(=O)Nc1ccc(Br)cc12 (stereo not drawn) lies strictly below 90% Met

State whether 90% exceeds growth recorded for COc1sc(/C=N/NC(=O)c2[nH]c3ccc(Br)cc3c2-c2ccccc2)cc1Cl . Met

Regarding CCCCCCCCCCCCCCCCCC(=O)Nc1ccc(OC)cc1 , kindly confirm whether its growth is beneath 90%. Not met

Does this compound meet the criterion growth < 90%? COc1ccc(C(=O)NNC(=O)CSc2nc3sc4c(c3c(=O)n2-c2ccc(Cl)cc2)CCCC4)cc1 Not met

Strictly below 90%: is that where growth of CN1C(=O)C2(C(C#N)=C(c3ccc(Cl)cc3)Nc3c2c(-c2ccccc2)nn3-c2ccccc2)c2ccccc21 (stereo not drawn) sits? Met

Item N#Cc1c(-c2ccc(F)cc2)nc(SCc2ccccc2)nc1N1CCNCC1 : growth beneath 90%, strictly? Met

Hello, I'm reviewing records and need to know if growth of NS(=O)(=O)c1ccc(Nc2nc(SCC(=O)c3ccc(F)cc3)nc3ccccc23)cc1 is below 90%. Could you check? Met

Below 90% on growth? Entry COc1cc(/C=N/NC(=O)c2ccc(OCc3nc4ccc(Cl)cc4[nH]3)cc2)cc(OC)c1OC Met

Report whether reported growth is lower than 90% (strictly) for O=C(CSc1nnc(-c2ccc(-c3nc4ccc(Cl)cc4[nH]3)cc2)o1)Nc1ccccc1 Met

Consider CCCCCCCCc1ccc(C(=O)Nc2cccc(O)c2)cc1 . Does its growth lie strictly below 90%? Not met

Does the reported growth of the following compound sit strictly below 90%? C[C@@H](Nc1c(C#N)cnc2ccc(-c3cnc4[nH]ncc4c3)cc12)c1ccccc1 Met

State whether 90% exceeds growth recorded for N/C(=N\c1nc2ccccc2s1)NC(=O)Nc1ccccc1F . Met

In plain terms, does CS(=O)(=O)Nc1cc(-c2ccc3ncnc(Nc4ccc(OCc5cccnc5)c(Cl)c4)c3c2)cnc1Cl come in under 90% for growth? Met

Does the reported growth of COc1sc(/C=N/NC(=O)c2[nH]c3ccc(Br)cc3c2-c2ccccc2)cc1Br stay below 90%? Met

Quick check: does O=C(Cc1c(-c2ccccc2[N+](=O)[O-])n(-c2ncnc3c2c(-c2ccccc2)c(-c2ccccc2)n3Cc2ccccc2)[nH]c1=O)c1ccc(Cl)c(Cl)c1 have growth under 90%? Met

====

System: IGROV1 ovarian
measurementDescription: NCI-60 one-dose screen, 48 h (100 = growth as untreated, 0 = no growth, -100 = all killed)
studyConditions: 10 µM unless noted
This is part of a sample that, as a whole, favours compounds with a hit. Of some 83,000 tested, about 20% had one in any assay.
Under this convention, yes denotes growth strictly below 40% and no denotes growth at or above 40%.

Given c1n[nH]cc1-c1nc2ccc3[nH]ncc3c2c2c1CC1(CC2)COC1 , is recorded growth strictly lower than 40%? no

Dear reviewer, please state whether Clc1ccc(-c2nc3ccc(-c4nnc(SCc5ccccc5)o4)cc3[nH]2)cc1 has growth strictly beneath 40%. yes

Say whether its growth is strictly beneath 40%. Entry: O=C(CSc1nc2c(c(=O)[nH]1)CCCC2)Nc1ccccc1C(=O)O no

Just wondering, is growth of Cc1ccc(NC(=O)N/N=C/c2c[nH]c3ccccc23)c(C)c1 below 40%? yes

Please let me know if COc1ccc(NC(=O)Cn2c(/C=C/c3cccc(OC)c3)nc3ccccc3c2=O)cc1 shows growth below 40%. yes

Answer whether the molecule COc1cc(C2CC(c3ccc(Cl)cc3)=Nc3c(N)nc(N)nc3N2)ccc1Oc1nc(Nc2ccc(F)cc2)nc(N(C)C)n1 (stereo not given) has growth strictly less than 40% yes

Bench note: check whether CCCCCCCCc1ccc(C(=O)Nc2cccc(O)c2)cc1 shows growth below 40% no

Please determine if O=C1NC(=S)/C(=C/c2cn(-c3ccccc3)nc2-c2ccccc2)S1 is below 40% in terms of growth. yes

Lab note: growth threshold 40%. Does this molecule come in strictly under it? CCCCCCCCc1ccc(C(=O)Nc2ccc(C)cc2C(=O)O)cc1 no

Take the molecule CC1=C(C(=O)Nc2ccccc2)C(c2cccc(Cl)c2Cl)n2c(nc3ccccc32)N1 (stereo not given) and say whether its growth is less than 40%. no

Is growth strictly under 40% for the entry Cc1cccc(C)c1Nc1nnc(-c2c[nH]c3ccccc23)o1 ? no

Is it true that growth reported for Cc1cc(C(NC(=O)CCCCCNc2cccc3c2C(=O)N(C2CCC(=O)CC2=O)C3=O)c2cccc(N(C)C)c2)c(O)c2ncccc12 (stereo not given) is less than 40%? yes

Lab log: compare recorded growth with 40%; is it strictly lower for COc1ccc(N=Nc2c(N)nn3c(N)c(C#N)c(-c4ccccc4)nc23)cc1 ? yes

Does the reported growth of the following molecule sit strictly below 40%? COc1ccc(OC)c(Cn2cc(C#N)c(N)c2C(=O)c2ccc(Br)cc2)c1 no

Record CNS(=O)(=O)N1CCc2c(Br)c3c(c(OC)c2C1CCc1ccccc1)OCO3 (stereo not given) : is its growth strictly below 40%? yes

Report whether reported growth is lower than 40% (strictly) for O=C1Nc2ccccc2/C1=C\c1ccc(OCC(=O)c2ccc(Br)cc2)cc1 no

A record lists CN1CCN(c2ccc3c4c(cccc24)C(=O)N(c2cccc(-c4nn(-c5ccccc5)cc4-c4nc5ccccc5s4)c2)C3=O)CC1 . Is its growth below 40%? no

Please state whether growth is below 40% for CCc1ccc(SC2c3cc(OC)ccc3Oc3nc(N)c(C#N)c(N)c32)cc1 (stereo not given) yes

Does this molecule meet the criterion growth < 40%? COc1ccc(S(=O)(=O)Nc2ccc(-c3ccc4c(c3)NC(=O)/C4=C\c3ccc[nH]3)cc2)cc1OC yes

Does CCC(=O)c1cc(C(=O)OC)c2ccc3c4ccccc4ccc3n12 have growth strictly under 40%? no

Find out if reported growth for COc1ccc(NC(=O)Nc2nc3ccc([N+](=O)[O-])cc3s2)cc1 is less than 40% yes

Report whether reported growth is lower than 40% (strictly) for O=C(N=Nc1c(O)[nH]c2ccc(Br)cc12)c1ccc2nc(-c3ccc(Cl)cc3)[nH]c2c1 yes

Given the entry COC(=O)CSC1=C(C)C(=O)C(OC)=C(OC)C1=O , would its reported growth be below 40%? no

Input N#Cc1c(-c2ccc(F)cc2)nc(SCc2ccc(F)cc2)nc1N1CCNCC1 ; condition: growth strictly below 40%. Does it hold? yes

Consider CCOC(=O)/C(F)=C/C1CC1C(c1ccccc1)c1ccccc1 (stereo not given) . Does its growth lie strictly below 40%? no

Below 40% on growth? Entry Clc1ccc2c(NCCNC34CC5CC(CC(C5)C3)C4)ccnc2c1 yes

Check if growth falls below 40% for COc1ccc(NC2=C(I)C(=O)C(C)=C(C)C2=O)cc1 . yes

Regarding Cc1ccc(S(=O)(=O)Nc2ccc(-c3ccc4c(c3)NC(=O)/C4=C\c3ccc[nH]3)cc2)cc1 , kindly confirm whether its growth is beneath 40%. no

# TODO verify growth < 40% strictly for this molecule: Clc1ccccc1Nc1nnc(-c2c[nH]c3ccccc23)o1 yes

Identify whether the molecule COc1cc(NC(=O)C(C)C)ccc1C(=O)NC(=S)Nc1ccc(S(N)(=O)=O)cc1 records growth below 40%. no

Decide: growth of COc1cc(/C=N/NC(=O)c2ccc(OCc3nc4ccc(Cl)cc4[nH]3)cc2)cc(OC)c1OC strictly below 40%? no

A record lists O=C(N/N=C/c1ccc(Cl)o1)c1[nH]c2ccc(Br)cc2c1-c1ccccc1 . Is its growth below 40%? yes

# TODO verify growth < 40% strictly for this molecule: COc1ccc([C@H]2C(C(=O)c3ccc(Cl)cc3)C3(N[C@@H]2c2ccccc2)C(=O)Nc2ccccc23)cc1 (stereo not given in full) yes

Regarding COC(=O)c1cc(C(C)=O)n2c3ccccc3c3ccccc3c12 , kindly confirm whether its growth is beneath 40%. no

Bench note: check whether O=C(Nc1ccc(-c2ccc3c(c2)NC(=O)/C3=C\c2ccc[nH]2)cc1)Nc1ccc(Cl)c(Cl)c1 shows growth below 40% no

Does this molecule meet the criterion growth < 40%? Cc1ccc(N=Nc2c(N)nn3c(-c4cc5ccccc5oc4=O)ccnc23)cc1 yes

Quick check: growth of O=C(N/N=C/c1occc1Br)c1[nH]c2ccc(Br)cc2c1-c1ccccc1 under 40%? yes

Confirm or reject: growth of O=c1[nH]c2ccccc2cc1CSc1ccccc1Nc1nccc(-c2ccc3c(c2)OCO3)n1 lies strictly below 40% no

# strict comparison: is reported growth < 40%? input = CS(=O)(=O)Nc1cccc(-n2cnc3cc(-c4ccc(O)cc4)ccc32)c1 no

Decide: growth of COc1ccc(C(=O)c2cc(C(C)=O)c3c(C)cc(C)cn23)cc1 strictly below 40%? no
